Molecular target: T1, purified CD160 (SPR analyte) (UniProt O95971 25-159, limits assumed)
T1 sequence (looked up): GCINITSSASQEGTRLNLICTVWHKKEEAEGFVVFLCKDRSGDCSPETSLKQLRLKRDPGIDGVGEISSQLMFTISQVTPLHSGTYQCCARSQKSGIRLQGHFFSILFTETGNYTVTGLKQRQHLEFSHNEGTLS
Assay: SPR, Biacore T200, scFv captured on CM5 chip, CD160 as analyte, single-cycle kinetics, 1:1 Langmuir fit
Method: FIG. 8—Characterization of the monoclonal scFv identified in the biopanning. [A] […] We identified five different CDR3H in which three were represented in multiple clones and […]. [B] Flow cytometry analysis of the five selected CDR3 expressed secreted as chimeric scFv fused with mIgG2aFc. […] [C] The affinity of these five scFv was determined using Biacore T200 technology. […]
# strict inequality: Kd < 300 pM yields TRUE, everything else yields FALSE

>>> category("anti-CD160 scFv clone 1 (C123) (scFv, Rat scFv, VH-linker-VL) scFv: EVKLVESGGGLVQPGRSLKLSCAASGFIFSNYAMAWVRQAPTKGLEWVASVNSGGANTYYRDSVKGRFTISRDNAKNTQYLHIDSLRSEDTATYYCATHNYESTVFDYWGQGAMVTVSSGGGGSGGGGSSGGGGSEIVLTQSPTTMTASPGEKVTITCRASSSVSYMHWYQQKPGASPKPWIYETSKLASGVPDRFSGSGSGTSYSLTINNMEAEDAATYYCQQWNYPSMYTFGAGTKLELKR")
"TRUE"
>>> category("anti-CD160 scFv clone 3 (C83) (scFv) scFv: QVNLQESGPGLVQPSETLSLTCTVSGFSLTSYGVYWVRQPPGKGLEWMGRIWNDGGTDYNPALKSRLSISRDTSKSQVFLKLNSLQTEDTAIYFCARGWTHWGQGTLVTVSSGGGGSGGGGSGGGGSDIQMTQSPASLSASLGETVSIECLASEDIYNNLAWYQQKPGKSPQLLIYYASSLQDGVPSRFSGSGSGTQYSLKINSLESEDVATYFCLQDSEYPPTFGGGTKLELKR")
"TRUE"
>>> category("anti-CD160 scFv clone 10 (scFv, Rat scFv, VH-linker-VL) scFv: EVQLVESGPGLVQPSETLSLTCTVSGFSLTSYGVNWFRQPPGKGLEWMGTIWNDGGTDYNSALKSRLSISRDTSKSQVFLKMNSLQTEDTAIYFCARGFEYWGQGTLVTVSSGGGGSGGGGSGGGGSDIVMTQSPKSMSISVGDRVTMNCKASQNVGKNIAWYQQKPGQSPKLLIYYASNRYTGVPDRFTGSGSGTDFTLTITNMQTEDLAVYYCLQYNYNPWTFGGGTKLELKR")
"FALSE"
>>> category("anti-CD160 scFv clone 7 (scFv, Rat scFv, VH-linker-VL) scFv: EVQLVESGPGLVQPSETLSLTCTVSGFSLTSHGVNWFRQPPGKGLEWMGTIWNDGGTDYNSALKSRLSIIRDTSKGQVFLKMNSLQTEDTAIYFCARGLAYWGQGTLVTVSSGGGGSGGGGSGGGGSDIQMTQSPASLSASLGETVNIECLASEDIYSDLAWYQQKPGKSPQLLIYNANSLQNGVPSRFSGSGSGTQYSLKINSLQSEDVATYFCQQYNNYPWTFGGGTKLEIKR")
"FALSE"
>>> category("anti-CD160 scFv clone 12 (scFv, Rat scFv, VH-linker-VL) scFv: EVQLVESGGGFVQPGGSLKLSCAASGFTFSNYGMAWVRQAPKKGLEWVASISSGRGNTYYRDSVKGRFTISRDNAKNTQYLQMDSLRSEDTATYYCVTHNYESTIFDYWGQGVMVTVSSGGGGSGGGGSGGGGSEIVLTQSPTTMTASPGEKVTIICRASSSVSYMHWYQQKPGASPKPWIYETSKLASGVPDRFSGSGSGTSYSLTFNNMEAEDAATYYCQQWNYPSMYTFGAGTKLELKR")
"TRUE"

Now for another entry.
INPUT: Lab note: confirm whether the reported Kd for this binder is below 300 pM, equality not counting. binder: anti-CD160 scFv clone 11 (PB10) (scFv, Rat scFv, VH-linker-VL) scFv: EVQLVESGGGLVQPGRSLKLSCAASGFTFSNYGMAWVRQAPTKGLEWVASINTSGGSTYYRDSVKGRFTISRDNAKSTLYLQMDSLRSEDTATYYCATIYYHDGSYYYAGWFAYWGQGTLVTVSSGGGGSGGGGSGGGGSDIVLTQSPALAVSPGERVSISCRASESVSTLMHWYQQKLGQQPKLLIYGASNLESGVPARFSGSGSGTDFTLNIDPVEADDIATYFCQQSWNGPWTFGGGTKLELKR
OUTPUT: FALSE
